# system: EGFR mutant L858R/T790M (Homo sapiens, UniProt P00533, L858R/T790M)
# Construct: truncated human JAK3, EGFR mutants such as del E746-A750; purchased Carna Biosciences
# Sequence (P00533 669-1210 T790M/L858R limits assumed): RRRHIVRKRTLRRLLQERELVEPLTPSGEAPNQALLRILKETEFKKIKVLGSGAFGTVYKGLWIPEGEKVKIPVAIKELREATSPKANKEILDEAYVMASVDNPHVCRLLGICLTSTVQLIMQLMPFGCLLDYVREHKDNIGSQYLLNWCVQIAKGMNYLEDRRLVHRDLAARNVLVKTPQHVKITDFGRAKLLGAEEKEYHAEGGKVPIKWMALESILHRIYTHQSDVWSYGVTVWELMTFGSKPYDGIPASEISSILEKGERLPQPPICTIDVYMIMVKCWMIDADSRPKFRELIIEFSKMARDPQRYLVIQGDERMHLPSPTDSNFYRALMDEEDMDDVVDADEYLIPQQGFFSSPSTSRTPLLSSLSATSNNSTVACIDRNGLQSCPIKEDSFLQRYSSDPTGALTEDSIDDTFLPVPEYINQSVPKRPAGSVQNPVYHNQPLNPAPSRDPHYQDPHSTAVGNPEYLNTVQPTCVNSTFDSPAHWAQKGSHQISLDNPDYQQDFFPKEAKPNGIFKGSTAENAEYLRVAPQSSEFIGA
# measurement protocol: Kinase inhibition assay, EGFR L858R/T790M;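 note: truncated human enzyme preincubated two hours with compound, then one hour with one millimolar ATP and ULight-PolyGT peptide, Europium-labeled antibody detection, IC50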
# Type: biochemical
# settings: read-out: EGFR mutants L858R/T790M
measurement type: IC50

Solved cases below.
| compound | system | IC50 |
| --- | --- | --- |
| C=CC(=O)Nc1cc(Nc2nccc(-n3cc(CN4CCC4)c(C)n3)n2)c(OC)cc1N1CCC(F)(F)CC1 | EGFR mutant L858R/T790M (Homo sapiens, UniProt P00533, L858R/T790M) | 20 to 200 nM |
| C=CC(=O)Nc1cc(Nc2ncc(C)c(-n3cc(CN4CCC4)c(-c4ccccc4)n3)n2)c(OC)cc1N1CCOCC1 | EGFR mutant L858R/T790M (Homo sapiens, UniProt P00533, L858R/T790M) | < 20 nM |
| C=CC(=O)Nc1cc(Nc2ncc(C)c(-n3cc(CN(C)C)c(-c4ccccc4)n3)n2)c(OC)cc1N1CCOCC1 | EGFR mutant L858R/T790M (Homo sapiens, UniProt P00533, L858R/T790M) | < 20 nM |
| C=CC(=O)Nc1cc(Nc2ncc(Cl)c(-n3cc(CN4CCC4)c(C)n3)n2)c(OC)cc1N1CCOCC1 | EGFR mutant L858R/T790M (Homo sapiens, UniProt P00533, L858R/T790M) | < 20 nM |

If you can, please state the reported IC50 value of CC/C=C\CC(=O)Nc1cc(Nc2nccc(-n3cc(CN(C)C)c(-c4ccccc4)n3)n2)c(OC)cc1N1CCOCC1 [Compound 156, reference compound] .
201 to 1000 nM

If you can, please state the reported IC50 value of C=CC(=O)Nc1cc(Nc2nccc(-n3cc(CN4CCC4)c(C(C)C)n3)n2)c(OC)cc1N(C)C1COC1 .
< 20 nM

If you can, please state the reported IC50 value of C=CC(=O)Nc1cc(Nc2nccc(-n3cc(CN4CCC4)c(-c4ccccc4)n3)n2)c(OC)cc1N1CCC1 .
< 20 nM

====

# system: EGFR mutant L858R (Homo sapiens, UniProt P00533, L858R)
# Construct: truncated human JAK3, EGFR mutants such as del E746-A750; purchased Carna Biosciences
# Sequence (P00533 669-1210 L858R limits assumed): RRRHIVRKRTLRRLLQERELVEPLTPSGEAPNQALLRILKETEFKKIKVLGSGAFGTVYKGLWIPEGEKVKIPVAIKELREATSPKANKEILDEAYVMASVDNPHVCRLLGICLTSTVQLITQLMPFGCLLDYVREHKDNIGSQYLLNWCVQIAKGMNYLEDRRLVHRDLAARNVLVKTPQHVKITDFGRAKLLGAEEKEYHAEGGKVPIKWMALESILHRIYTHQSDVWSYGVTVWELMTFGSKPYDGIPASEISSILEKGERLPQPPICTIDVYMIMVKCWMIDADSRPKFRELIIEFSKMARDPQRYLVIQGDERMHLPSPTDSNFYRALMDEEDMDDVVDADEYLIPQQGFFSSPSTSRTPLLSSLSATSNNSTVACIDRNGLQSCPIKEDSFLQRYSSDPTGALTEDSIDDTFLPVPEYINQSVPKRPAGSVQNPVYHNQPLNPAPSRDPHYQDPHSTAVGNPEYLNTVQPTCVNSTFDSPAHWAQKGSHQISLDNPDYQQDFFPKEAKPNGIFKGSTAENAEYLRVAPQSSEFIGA
# measurement protocol: Kinase inhibition assay, EGFR L858R;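 note: truncated human EGFR L858R kinase with compound preincubation, ULight-PolyGT peptide phosphorylation read by Europium-antibody Lance detection, IC50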
# Format: biochemical
# settings: read-out: EGFR mutants L858R
pIC50: −log10 of the molar value.
measurement type: pIC50

Solved cases below.
| compound | system | pIC50 |
| --- | --- | --- |
| C=CC(=O)Nc1cc(Nc2nccc(-n3cc(CN4CCC4)c(-c4ccccc4)n3)n2)c(OC)cc1N1CCOCC1 [Compound 78] | EGFR mutant L858R (Homo sapiens, UniProt P00533, L858R) | > 7.70 |
| C=CC(=O)Nc1cc(Nc2ncc(C)c(-n3cc(CN4C[C@H](O)[C@H](OC)C4)c(C)n3)n2)c(OC)cc1N1CCOCC1 [Compound 26] | EGFR mutant L858R (Homo sapiens, UniProt P00533, L858R) | > 7.70 |
| C=CC(=O)Nc1cc(Nc2nccc(-n3cc(CN(C)C)c(-c4cccnc4)n3)n2)c(OC)cc1N1CCOCC1 [Compound 128] | EGFR mutant L858R (Homo sapiens, UniProt P00533, L858R) | > 7.70 |
| C=CC(=O)Nc1cc(Nc2ncc(F)c(-n3cc(C)c(CN4CCC4)c3)n2)c(OC)cc1N1CCOCC1 [Compound 60] | EGFR mutant L858R (Homo sapiens, UniProt P00533, L858R) | 6.70 to 7.70 |
| C=CC(=O)Nc1cc(Nc2nccc(-n3cc(CN4CCC4)c(-c4ccc(C)cc4)n3)n2)c(OC)cc1N1CCOCC1 [Compound 82] | EGFR mutant L858R (Homo sapiens, UniProt P00533, L858R) | 6.70 to 7.70 |
| C=CC(=O)Nc1cc(Nc2nccc(-n3cc(CN4CCC4)c(C(C)(C)C)n3)n2)c(OC)cc1N(C)CCOC [Compound 101] | EGFR mutant L858R (Homo sapiens, UniProt P00533, L858R) | > 7.70 |

Please find the next compound below.
If you can, please state the reported pIC50 value of CC/C=C\CC(=O)Nc1cc(Nc2nccc(-n3cc(CN(C)C)c(-c4ccccc4)n3)n2)c(OC)cc1N1CCOCC1 [Compound 156, reference compound] .
< 6.00

Data credit: patent USRE50528E1
